procedure_summary: Solubility study in buffer solutions pH 1.2-7.5 (shake flask, HPLC)
Type: physicochemical
experimental_conditions: hydrochloric acid/sodium chloride buffer pH 1.2, 25 °C, pH 1.2, simulated gastric fluid, thermodynamic from solid, pH 1.2, 25 °C, mean of three batches

molecule: C[n+]1ccc(C(=O)NCc2ccccc2)cc1.[I-] [enisamium iodide]
unit_name: mg/mL
solubility at 96 h: 63.3

----------
procedure_summary: Solubility study in buffer solutions pH 1.2-7.5 (shake flask, HPLC)
Format: physicochemical
experimental_conditions: potassium phosphate buffer pH 7.5, 37 °C, pH 7.5, aqueous buffer, thermodynamic from solid, pH 7.5, 37 °C, batch 190315
property_name: solubility at 96 h

molecule: C[n+]1ccc(C(=O)NCc2ccccc2)cc1.[I-] [enisamium iodide]
readout_value: 126 mg/mL

----------
procedure_summary: Solubility study in buffer solutions pH 1.2-7.5 (shake flask, HPLC)
Assay type: physicochemical
experimental_conditions: potassium phosphate buffer pH 6.8, 37 °C, pH 6.8, aqueous buffer, thermodynamic from solid, pH 6.8, 37 °C, mean of three batches
property_name: solubility at 96 h (mg/mL)

molecule: C[n+]1ccc(C(=O)NCc2ccccc2)cc1.[I-] [enisamium iodide]
readout_value: 130

----------
procedure_summary: Solubility study in buffer solutions pH 1.2-7.5 (shake flask, HPLC)
Format: physicochemical
experimental_conditions: potassium phosphate buffer pH 7.5, 25 °C, pH 7.5, aqueous buffer, thermodynamic from solid, pH 7.5, 25 °C, batch 170215

molecule: C[n+]1ccc(C(=O)NCc2ccccc2)cc1.[I-] [enisamium iodide]
solubility at 96 h / mg/mL: 58.9

----------
procedure_summary: Solubility study in buffer solutions pH 1.2-7.5 (shake flask, HPLC)
Type: physicochemical
experimental_conditions: sodium acetate/acetic acid buffer pH 4.5, 37 °C, pH 4.5, aqueous buffer, thermodynamic from solid, pH 4.5, 37 °C, batch 190315
property_name: solubility at 96 h (mg/mL)

compound: C[n+]1ccc(C(=O)NCc2ccccc2)cc1.[I-] [enisamium iodide]
unit_name: mg/mL
readout_value: 136

----------
procedure_summary: Caco-2 monolayer transport (permeability) study
Assay type: in vitro ADME, human
experimental_conditions: human, pH 7.4; Caco-2, efflux ratio, monolayer qualification marker; read-out: Papp (BA)/Papp (AB)
Protocol: Cell culture. For the maintenance culture, Caco-2 cells were incubated at 37 °C, 5% CO2, and 90% relative humidity in 75 cm^2 culture flasks with supplemented Dulbecco's Modified Eagle's Medium (DMEM). […] Fluorescein and rhodamine 123 samples (100 μL) were determined by fluorescence reading. […] The fluorescence intensity was recorded by exciting the sample with light at 485 nm and measuring the emitted fluorescence at 535 nm. […]

compound: COC(=O)c1ccccc1-c1c2ccc(=N)cc-2oc2cc(N)ccc12 [rhodamine 123, reference compound]
efflux ratio at 120 min: 17.1

----------
procedure_summary: Caco-2 monolayer transport (permeability) study
Type: in vitro ADME, human
experimental_conditions: human, Caco-2, pH 7.4, Caco-2, monolayer qualification marker; read-out: Papp (AB)
Protocol: Cell culture. For the maintenance culture, Caco-2 cells were incubated at 37 °C, 5% CO2, and 90% relative humidity in 75 cm^2 culture flasks with supplemented Dulbecco's Modified Eagle's Medium (DMEM). […] Fluorescein and rhodamine 123 samples (100 μL) were determined by fluorescence reading. […] The fluorescence intensity was recorded by exciting the sample with light at 485 nm and measuring the emitted fluorescence at 535 nm. […]
property_name: Papp A→B at 120 min (×10⁻⁶ cm/s)

molecule: O=C1OC2(c3ccc(O)cc3Oc3cc(O)ccc32)c2ccccc21 [fluorescein, reference compound]
property_name: Papp A→B at 120 min
readout_value: 0.18

molecule: CC(C)NCC(O)COc1cccc2ccccc12 (centres unmarked) [propranolol, reference compound]
property_name: Papp A→B at 120 min
readout_value: 19.6

----------
procedure_summary: Solubility study in buffer solutions pH 1.2-7.5 (shake flask, HPLC)
Type: physicochemical
experimental_conditions: sodium acetate/acetic acid buffer pH 4.5, 37 °C, pH 4.5, aqueous buffer, thermodynamic from solid, pH 4.5, 37 °C, batch 180215
property_name: solubility at 96 h

molecule: C[n+]1ccc(C(=O)NCc2ccccc2)cc1.[I-] [enisamium iodide]
property_name: solubility at 96 h
readout_value: 133 mg/mL

----------
procedure_summary: Solubility study in buffer solutions pH 1.2-7.5 (shake flask, HPLC)
Format: physicochemical
experimental_conditions: potassium phosphate buffer pH 6.8, 25 °C, pH 6.8, aqueous buffer, thermodynamic from solid, pH 6.8, 25 °C, batch 170215

molecule: C[n+]1ccc(C(=O)NCc2ccccc2)cc1.[I-] [enisamium iodide]
solubility at 96 h (mg/mL): 60.8

----------
procedure_summary: Solubility study in buffer solutions pH 1.2-7.5 (shake flask, HPLC)
Type: physicochemical
experimental_conditions: sodium acetate/acetic acid buffer pH 4.5, 25 °C, pH 4.5, aqueous buffer, thermodynamic from solid, pH 4.5, 25 °C, batch 180215
property_name: solubility at 96 h (mg/mL)

compound: C[n+]1ccc(C(=O)NCc2ccccc2)cc1.[I-] [enisamium iodide]
property_name: solubility at 96 h
readout_value: 59.3

----------
procedure_summary: Solubility study in buffer solutions pH 1.2-7.5 (shake flask, HPLC)
Assay type: physicochemical
experimental_conditions: sodium acetate/acetic acid buffer pH 4.5, 37 °C, pH 4.5, aqueous buffer, thermodynamic from solid, pH 4.5, 37 °C, batch 170215
property_name: solubility at 96 h (mg/mL)

molecule: C[n+]1ccc(C(=O)NCc2ccccc2)cc1.[I-] [enisamium iodide]
unit_name: mg/mL
readout_value: 132
